Tested on: U251 CNS
Experiment: NCI-60 one-dose screen, 48 h
Settings: 10 µM unless noted
Compounds without any hit were thinned out: in the full panel of roughly 83,000, 20% have a hit. The source made the active and inactive calls. Rule for the calls: active = growth percent below 10; inactive = the rest.
Choose the fitting class; nothing outside active, inactive is accepted.

# count of solved cases: 6
* Nc1ncc(C#Cc2cncc(NC(=O)c3cccc(C(F)(F)F)c3)c2)c2cccnc12 | inactive
* NNC(=O)/C(=C\c1ccc([N+](=O)[O-])cc1)CC(=O)c1ccc(Cl)c(Cl)c1 | inactive
* CC(=O)c1cc2c(N)c(C(=O)Nc3cncc4ccccc34)sc2nc1C | inactive
* C=CCn1c(SCC(=O)Nc2ccc(C(=O)/C=C/c3cc(OC)c(OC)c(OC)c3)cc2)nnc1-c1cc(-c2ccc(S(C)(=O)=O)cc2)nc2ccccc12 | inactive
* Cc1ccc(C2CC(c3cccc(Nc4ccncc4)c3)=NN2c2ccc(Cl)cc2)cc1 (centres undefined) | active
* CC(=O)OCC(=O)C1(O)C(C)CC2C3C=C(C)C4=Cc5c(cnn5-c5ccccc5)CC4(C)C3C(O)CC21C (centres undefined) | inactive

Prompt line: For O=C(Nc1ccc2cc3ccc(NC(=O)N4CCCCCC4)cc3nc2c1)N1CCCCCC1 , what call appears in the results of this test?
Response line: active

Prompt line: For c1cnc2nc3c(cc2c1)oc1ccccc13 , what call appears in the results of this test?
Response line: inactive

Prompt line: For COc1ccncc1C#Cc1cncc(C(=O)Nc2ccc(CN3CCN(C)CC3)c(C(F)(F)F)c2)c1 , what call appears in the results of this test?
Response line: inactive

Recorded values, source PubChem BioAssay (NCI).
